EC50 for assorted molecules
testSystem: FLT3 (Homo sapiens, UniProt P36888)
Construct: purchased Invitrogen, Inc. (SelectScreen platform)
Sequence (P36888 27-993): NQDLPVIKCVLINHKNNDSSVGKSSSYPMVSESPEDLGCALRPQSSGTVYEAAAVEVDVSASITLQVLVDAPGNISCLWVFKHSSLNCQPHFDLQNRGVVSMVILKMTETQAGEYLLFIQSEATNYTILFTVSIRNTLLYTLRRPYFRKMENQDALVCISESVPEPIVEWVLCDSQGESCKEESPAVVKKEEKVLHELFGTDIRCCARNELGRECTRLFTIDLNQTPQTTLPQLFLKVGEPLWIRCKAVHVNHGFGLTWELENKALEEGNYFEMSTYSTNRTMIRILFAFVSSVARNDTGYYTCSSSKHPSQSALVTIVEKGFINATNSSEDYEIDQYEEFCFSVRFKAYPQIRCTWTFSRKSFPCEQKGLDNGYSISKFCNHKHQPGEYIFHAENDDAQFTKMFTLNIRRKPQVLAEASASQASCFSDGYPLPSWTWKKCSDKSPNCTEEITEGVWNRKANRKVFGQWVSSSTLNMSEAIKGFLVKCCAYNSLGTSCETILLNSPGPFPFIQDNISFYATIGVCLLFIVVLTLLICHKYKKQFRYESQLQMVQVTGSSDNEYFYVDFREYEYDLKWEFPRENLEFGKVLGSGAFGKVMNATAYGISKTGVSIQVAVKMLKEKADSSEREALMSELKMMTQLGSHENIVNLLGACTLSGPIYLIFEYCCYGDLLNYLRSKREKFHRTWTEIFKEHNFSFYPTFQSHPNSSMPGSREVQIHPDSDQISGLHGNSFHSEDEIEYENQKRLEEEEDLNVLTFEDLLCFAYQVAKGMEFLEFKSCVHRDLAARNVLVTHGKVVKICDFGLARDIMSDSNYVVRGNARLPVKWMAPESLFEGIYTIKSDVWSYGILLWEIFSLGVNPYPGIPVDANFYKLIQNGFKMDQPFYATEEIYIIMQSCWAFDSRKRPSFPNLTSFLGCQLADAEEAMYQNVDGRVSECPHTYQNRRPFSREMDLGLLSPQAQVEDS
assayText: SelectScreen kinase assay against FLT3
Assay type: biochemical
recordedConditions: indazoles; ATP at 100 micromolar
# include the unit after the value

| molecule | EC50 |
| --- | --- |
| O=c1c2c(NCCN3CCOCC3)ccc3ncn(c4ccc5[nH]ncc5c14)c32 [Compound (VA)] | 0.032 µM |
| CN(C)CCCCCNc1ccc2ncn3c4ccc5[nH]ncc5c4c(=O)c1c23 [(IIIA)] | 0.016 µM |

Now, please, on to the next molecule.
Problem: Entry CN(C)CCCNc1ccc2ncn3c4ccc5[nH]ncc5c4c(=O)c1c23 [(IVA)] , system FLT3 (Homo sapiens, UniProt P36888): what EC50 was measured?
Solution: 0.009 µM
